Measured melting point of individual entries

Exercise: Indicate its recorded melting point; the molecule in question is O=c1cc(-c2ccc(OCCO)cc2)oc2ncccc12
Key: 157 to 159 °C

Exercise: Identify measured melting point corresponding to Cc1cc(-c2cc(=O)c3cccnc3o2)ccc1O
Key: 300 to 302 °C

Exercise: State, in one line, measured melting point of COc1cc(-c2cc(=O)c3cccnc3o2)ccc1O
Key: 253 to 255 °C

Exercise: Please give the documented melting point of CC(=O)Oc1ccc(-c2cc(=O)c3cccnc3o2)cc1
Key: 167 to 169 °C

----------
observation.type: melting point

Here is how some compounds turned out for melting point.
structure.notation	result
O=c1cc(-c2ccc(O)c(Cl)c2)oc2ncccc12	259 to 262 °C
COc1ccc(-c2cc(=O)c3cccnc3o2)cc1	269 to 270 °C
O=c1cc(-c2ccc(O)cc2)oc2cnccc12	294 to 296 °C
O=c1cc(-c2ccc(O)c(F)c2)oc2ncccc12	267 to 268 °C
O=c1cc(-c2ccc(O)c(Br)c2)oc2ncccc12	267 to 272 °C
O=c1cc(-c2ccc(O)cc2)oc2ccncc12	306 to 308 °C

Exercise: Give the measured melting point for O=c1cc(-c2ccc(O)c(CO)c2)oc2ncccc12
Key: 226 to 227 °C
